subject_of_test: T1, human CD71 extracellular domain (CD71-ECD) (human, UniProt P02786 89-760)
T1 construct: It was captured on a Neutravidin plate; also called hCD71; transferrin receptor 1 ECD
test: capture ELISA, 20 nM antigen on Neutravidin plate, FN3 titrated 250 to 0.3 nM
pEC50: −log10 of the molar value.
measure_name: pEC50

- binder: "CD71-binding FN3 domain of SEQ ID NO: 478 (designed binder, Tencon-based FN3 domain) MLPAPKNLVVSRVTEDSARLSWTAPDAAFDSFFIGYLEPQPPGEAIHLYVPGSERSYDLTGLKPGTEYNVTIQGVKGGFPSVPLIAKFTT"
  quantitative_readout: 9.40
- binder: "CD71-binding FN3 domain of SEQ ID NO: 516 (designed binder, Tencon-based FN3 domain) MLPAPKNLVVSRVTEDSARLSWTAPDAAFDSFFIGYLEPQPPGEAISLWVPGSERSYDLTGLKPGTEYNVTIQGVKGGFPSSPLVAYFTT"
  quantitative_readout: 8.66
- binder: "CD71-binding FN3 domain of SEQ ID NO: 496 (designed binder, Tencon-based FN3 domain) MLPAPKNLVVSRVTEDSARLSWTAPDAAFDSFFIGYLEPQPPGEAIILWVPGSERSYDLTGLKPGTEYNVTIQGVKGGFPSVPLIAQFTT"
  quantitative_readout: 8.41
- binder: "CD71-binding FN3 domain of SEQ ID NO: 483 (designed binder, Tencon-based FN3 domain) MLPAPKNLVVSRVTEDSARLSWTAPDAAFDSFFIGYLEPQPPGEAITLVVPGSERSYDLTGLKPGTEYNVTIQGVKGGFPSDPLVASFTT"
  quantitative_readout: 7.85
- binder: "CD71-binding FN3 domain of SEQ ID NO: 447 (designed binder, Tencon-based FN3 domain) MLPAPKNLVVSRVTEDSARLSWTAPDAAFDSFFIGYLEPQPPGEAIYLYVPGSERSYDLTGLKPGTEYNVTIQGVKGGFPSYPLTAQFTT"
  quantitative_readout: 8.49
- binder: "CD71-binding FN3 domain of SEQ ID NO: 473 (designed binder, Tencon-based FN3 domain) MLPAPKNLVVSRVTEDSARLSWTAPDAAFDSFFIGYLEPQPPGEAIDLWVPGSERSYDLTGLKPGTEYNVTIQGVKGGFPSLPLSASFTT"
  quantitative_readout: 8.37
- binder: "CD71-binding FN3 domain of SEQ ID NO: 476 (designed binder, Tencon-based FN3 domain) MLPAPKNLVVSRVTEDSARLSWTAPDAAFDSFFIGYLEPQPPGEAIHLQVPGSERSYDLTGLKPGTEYNVTIQGVKGGFPSIPLIAVFTT"
  quantitative_readout: 8.68
- binder: "CD71-binding FN3 domain of SEQ ID NO: 465 (designed binder, Tencon-based FN3 domain) MLPAPKNLVVSRVTEDSARLSWTAPDAAFDSFFIGYLEPQPPGEAIDLYVPGSERSYDLTGLKPGTEYNVTIQGVKGGFPSEPLWADFTT"
  quantitative_readout: 8.60
- binder: "CD71-binding FN3 domain of SEQ ID NO: 540 (designed binder, Tencon-based FN3 domain) MLPAPKNLVVSRVTEDSARLSWTAPDAAFDSFYIAYAEPRPDGEAIILVVPGSERSYDLTGLKPGTEYSVLIHGVKGGLLSSPLDAGFTT"
  quantitative_readout: 8.00
- binder: "CD71-binding FN3 domain of SEQ ID NO: 472 (designed binder, Tencon-based FN3 domain) MLPAPKNLVVSRVTEDSARLSWTAPDAAFDSFFIGYLEPQPPGEAIELYVPGSERSYDLTGLKPGTEYNVTIQGVKGGFPSLPLVATFTT"
  quantitative_readout: 9.40
